- Tested on: CMV reporter
- method.summary: CMV reporter assay (control reporter beside the Ebox reporter)
- Assay type: cell-based
- measurement.conditions: class symbols
pIC50: −log10 of the molar value.
endpoint: pIC50

[
  {
    "line.notation": "Cn1nc(C(F)(F)F)cc1-c1ccc(C(=O)Nc2ccc(Cl)c(C(F)(F)F)c2)cc1O",
    "endpoint": "pIC50",
    "result": "4.30 to 5.00"
  },
  {
    "line.notation": "Cn1nc(C(F)(F)F)cc1-c1c(Cl)cc(OCc2ccc(Cl)cc2)c(-c2ccc(Cl)c(C(F)(F)F)c2)c1O",
    "endpoint": "pIC50",
    "result": "< 4.30"
  },
  {
    "line.notation": "CN(C(=O)c1ccc(-c2cc(C(F)(F)F)n(C)n2)c(O)c1)c1ccc(Cl)c(C(F)(F)F)c1",
    "endpoint": "pIC50",
    "result": "< 4.30"
  },
  {
    "line.notation": "Oc1cc(CNc2ccc(Cl)c(C(F)(F)F)c2)ccc1-c1cc(C(F)(F)F)n[nH]1",
    "endpoint": "pIC50",
    "result": "4.30 to 5.00"
  }
]

----------
Parameter: IC50. Scope: all listed entries.
- System: CMV reporter
- method.summary: CMV reporter assay (control reporter beside the Ebox reporter)
- Assay type: cell-based
- measurement.conditions: class symbols
endpoint: IC50

[
  {
    "line.notation": "Cn1nc(-c2ccc(CNc3ccc(Cl)c(C(F)(F)F)c3)cc2O)cc1C(F)(F)F",
    "result": "> 50 µM"
  },
  {
    "line.notation": "CN(C(=O)c1ccc(-c2cc(C(F)(F)F)n[nH]2)c(O)c1)c1ccc(Cl)c(C(F)(F)F)c1",
    "result": "10 to 50 µM"
  },
  {
    "line.notation": "CN(C(=O)c1ccc(-c2cc(C(F)(F)F)nn2C)c(O)c1)c1ccc(Cl)c(C(F)(F)F)c1",
    "result": "> 50 µM"
  },
  {
    "line.notation": "Cn1nc(C(F)(F)F)cc1-c1ccc(CNc2ccc(Cl)c(C(F)(F)F)c2)cc1O",
    "result": "10 to 50 µM"
  },
  {
    "line.notation": "Cn1nc(-c2ccc(C(=O)Nc3ccc(Cl)c(C(F)(F)F)c3)cc2O)cc1C(F)(F)F",
    "result": "> 50 µM"
  },
  {
    "line.notation": "Oc1c(-c2cc(C(F)(F)F)n[nH]2)c(Cl)cc(OCc2ccc(Cl)cc2)c1-c1ccc(Cl)c(C(F)(F)F)c1",
    "result": "10 to 50 µM"
  },
  {
    "line.notation": "Cn1nc(-c2c(Cl)cc(OCc3ccc(Cl)cc3)c(-c3ccc(Cl)c(C(F)(F)F)c3)c2O)cc1C(F)(F)F",
    "result": "> 50 µM"
  },
  {
    "line.notation": "O=C(Nc1ccc(Cl)c(C(F)(F)F)c1)c1ccc(-c2cc(C(F)(F)F)n[nH]2)c(O)c1",
    "result": "10 to 50 µM"
  }
]

----------
- method.summary: Potency code of Table 2 (assay not stated)
endpoint: Potency code

[
  {
    "line.notation": "Cn1cc(-c2ccc(OCc3ccc(Cl)cc3)cn2)c(C(F)(F)F)n1",
    "endpoint": "Potency code",
    "result": "+ (>40 +)"
  },
  {
    "line.notation": "CCc1ccc(Oc2c[nH]nc2-c2ccc(OCC3CCCCC3)cc2O)cc1",
    "endpoint": "Potency code",
    "result": "+ (>40 +)"
  },
  {
    "line.notation": "Cn1nc(C(F)(F)F)cc1-c1ccc(O)cn1",
    "endpoint": "Potency code",
    "result": "+ (>40 +)"
  },
  {
    "line.notation": "CCCCOc1ccc(-c2cc(C(F)(F)F)n[nH]2)c(O)c1-c1ccc(Cl)c(C(F)(F)F)c1",
    "endpoint": "Potency code",
    "result": "+ (>40 +)"
  },
  {
    "line.notation": "Oc1c(-c2cc(C(F)(F)F)[nH]n2)ccc(OCc2ccc(Cl)cc2)c1-c1ccc(C(F)(F)F)c(Cl)c1",
    "endpoint": "Potency code",
    "result": "+ (>40 +)"
  },
  {
    "line.notation": "CCc1ccc(Oc2cn(C)nc2-c2ccc(OCc3ccc(Cl)cc3)cc2O)cc1",
    "endpoint": "Potency code",
    "result": "+ (>40 +)"
  },
  {
    "line.notation": "COc1ccc(-c2c[nH]nc2-c2ccc(OCc3ccc(Cl)cc3)cc2O)cc1",
    "endpoint": "Potency code",
    "result": "+ (>40 +)"
  },
  {
    "line.notation": "c1ccc(COc2ccccc2-c2nn[nH]c2-c2ccccc2)cc1",
    "endpoint": "Potency code",
    "result": "+ (>40 +)"
  },
  {
    "line.notation": "Cn1cc(Oc2ccccc2Cl)c(-c2ccc(OCc3ccc(Cl)cc3)cc2O)n1",
    "endpoint": "Potency code",
    "result": "++++ (<10 ++++)"
  },
  {
    "line.notation": "CCOC(=O)c1cc(-c2ccc(OCc3ccc(Cl)cc3)c(-c3cc(C(F)(F)F)cc(C(F)(F)F)c3)c2O)n[nH]1",
    "endpoint": "Potency code",
    "result": "+ (>40 +)"
  },
  {
    "line.notation": "COc1ccccc1-c1c[nH]nc1-c1ccc(OCc2ccc(Cl)cc2)cc1O",
    "endpoint": "Potency code",
    "result": "+ (>40 +)"
  },
  {
    "line.notation": "COc1cccc(-c2c(C)nn(C)c2-c2ccc(OCc3ccc(Cl)cc3)cc2O)c1",
    "endpoint": "Potency code",
    "result": "+ (>40 +)"
  },
  {
    "line.notation": "COc1ccc(-c2cc(C(F)(F)F)n(C)n2)c(O)c1-c1cc(C(F)(F)F)cc(C(F)(F)F)c1",
    "endpoint": "Potency code",
    "result": "+ (>40 +)"
  },
  {
    "line.notation": "CCc1c(-c2cccc(OC)c2)c(-c2ccc(OCc3ccc(Cl)cc3)cc2O)nn1C",
    "endpoint": "Potency code",
    "result": "+ (>40 +)"
  },
  {
    "line.notation": "Oc1cc(OCc2ccc(Cl)cc2)ccc1-c1cc(C(F)(F)F)nc(-c2cc(C(F)(F)F)cc(C(F)(F)F)c2)n1",
    "endpoint": "Potency code",
    "result": "+ (>40 +)"
  },
  {
    "line.notation": "Cn1cc(-c2ccc(F)cc2)c(-c2ccc(OCc3ccc(Cl)cc3)cc2O)n1",
    "endpoint": "Potency code",
    "result": "+ (>40 +)"
  },
  {
    "line.notation": "CCCCCCOc1ccc(-c2cc(C(F)(F)F)nn2C)c(O)c1-c1cncc(C(F)(F)F)c1",
    "endpoint": "Potency code",
    "result": "++++ (<10 ++++)"
  },
  {
    "line.notation": "Cn1nc(C(F)(F)F)cc1-c1ccc(OCc2ccc(Cl)cc2)cc1N",
    "endpoint": "Potency code",
    "result": "+ (>40 +)"
  },
  {
    "line.notation": "Cn1nc(C(F)(F)F)cc1-c1ccc(OCCCNC(=O)OC(C)(C)C)c(-c2cncc(C(F)(F)F)c2)c1O",
    "endpoint": "Potency code",
    "result": "+ (>40 +)"
  },
  {
    "line.notation": "Oc1cc(OCc2ccc(Cl)cc2)ccc1-c1cc(C(F)(F)F)n(Cc2ccccc2)n1",
    "endpoint": "Potency code",
    "result": "+ (>40 +)"
  },
  {
    "line.notation": "Cn1cc(-c2c[nH]nc2-c2ccc(OCc3ccc(Cl)cc3)cc2O)cn1",
    "endpoint": "Potency code",
    "result": "+ (>40 +)"
  },
  {
    "line.notation": "Cn1ncc(-c2ccoc2)c1-c1ccc(OCc2ccc(Cl)cc2)cc1O",
    "endpoint": "Potency code",
    "result": "+ (>40 +)"
  },
  {
    "line.notation": "COc1ccc(-c2c(-c3ccc(OCc4ccc(Cl)cc4)cc3O)n[nH]c2C(F)(F)F)cc1OC",
    "endpoint": "Potency code",
    "result": "++++ (<10 ++++)"
  },
  {
    "line.notation": "Cn1cc(-c2cnc(OCc3ccc(Cl)cc3)cn2)c(C(F)(F)F)n1",
    "endpoint": "Potency code",
    "result": "+ (>40 +)"
  },
  {
    "line.notation": "Cn1nc(-c2ccc(Nc3ccc4c(c3)OCO4)cc2O)cc1C(F)(F)F",
    "endpoint": "Potency code",
    "result": "+ (>40 +)"
  },
  {
    "line.notation": "COc1ccc(COc2ccc(-c3cc(C(F)(F)F)n[nH]3)c(O)c2-c2cc(C(F)(F)F)cc(C(F)(F)F)c2)cc1",
    "endpoint": "Potency code",
    "result": "+ (>40 +)"
  },
  {
    "line.notation": "CCCCOc1ccc(-c2cc(C(F)(F)F)n[nH]2)c(O)c1-c1cncc(C#N)c1",
    "endpoint": "Potency code",
    "result": "++++ (<10 ++++)"
  },
  {
    "line.notation": "Cn1nc(-c2ccc(Nc3ccc(F)c(F)c3)cc2O)cc1C(F)(F)F",
    "endpoint": "Potency code",
    "result": "+ (>40 +)"
  },
  {
    "line.notation": "Cc1ccc(-c2c(C(F)(F)F)n[nH]c2-c2cc(OCc3ccc(Cl)cc3)ccc2O)cc1",
    "endpoint": "Potency code",
    "result": "+ (>40 +)"
  },
  {
    "line.notation": "Oc1cc(OCc2ccc(Cl)cc2)ccc1-c1cc(C(F)(F)F)[nH]n1",
    "endpoint": "Potency code",
    "result": "++++ (<10 ++++)"
  }
]
